Organism: Rattus norvegicus
Assay protocol: Open TG-GATES - Regimen: Single
Type: toxicity, organism-based, Sprague-Dawley
Set-up: regimen Single, gender Male, age 6 weeks
Assay context: in vivo, po, 0 mg/kg, 6 h, tissue Blood, route gavage, dose level Control
Result type: WBC

- Compound: "Oc1ncnc2[nH]ncc12 [ALLOPURINOL]"
  Result type: "WBC"
  Measured value: "98.8 x10_2/uL"
- Compound: "Nc1nc(N)c2nc(-c3ccccc3)c(N)nc2n1"
  Result type: "WBC"
  Measured value: "93.6 x10_2/uL"
- Compound: "C#C[C@]1(O)CC[C@H]2[C@@H]3CCc4cc(O)ccc4[C@H]3CC[C@@]21C [ETHINYL ESTRADIOL]"
  Result type: "WBC"
  Measured value: "90.8 x10_2/uL"
- Compound: "CC(=N)S [THIOACETAMIDE]"
  Result type: "WBC"
  Measured value: "126.6 x10_2/uL"
- Compound: "CC(=O)Oc1cc(C(C)C)c(OCCN(C)C)cc1C [MOXISYLYTE]"
  Result type: "WBC"
  Measured value: "99.5 x10_2/uL"
- Compound: "C[C@]12CCC(=O)C=C1CC[C@@H]1[C@@H]2CC[C@@]2(C)[C@H]1CC[C@]2(C)O [METHYLTESTOSTERONE]"
  Result type: "WBC"
  Measured value: "68.1 x10_2/uL"

Data provenance: ChEMBL document CHEMBL3885861
